Assay: Rat GLP 28-day repeat-dose intraperitoneal toxicity study
Format: in vivo, SD rats
Conditions: male, SD, rat, in vivo
Description: TRX-E-002-1 peak plasma concentrations were observed 0.25 – 0.5 h after dosing, except for mid-dose females on Day 1 (T max = 1 h). […] Mean plasma TRX-E-002-1 concentrations were roughly proportional to dose and were generally higher in males than in females. […] No deaths were observed during the study. […] At 10 mg/kg, reduced quantity of faeces was observed during the first 1 or 2 weeks in all animals. […]
attribute-measured: NOAEL at 28 days (mg/kg/day)

item_smiles=COc1cc([C@@H]2COc3c(ccc(O)c3C)[C@@H]2c2ccc(O)cc2)cc(OC)c1O numeric_result=3
